- System: KG-1 (human acute myeloid leukaemia)
- protocol.details: In vitro cytotoxicity, MTT assay, KG-1
- Assay type: cell-based
- experimental.conditions: Homo sapiens; 72 h with compound, MTT; n/a = non-active compound
quantity: IC50 (µM)
Record the value in µM, omitting the unit from your answer.

CCCNC(=S)N[C@@H]1C=C[C@]2(O[C@H]([C@@H](CC)C(=O)[C@@H](C)[C@@H](O)[C@H](C)[C@@H]3O[C@@H]([C@@H](CC)C(=O)O)CC[C@@H]3C)[C@@H](C)C[C@H]2C)O[C@@]12CC[C@@](C)([C@H]1CC[C@](O)(CC)[C@H](C)O1)O2 : 0.0247

# next compound below
Which IC50 is reported for this compound? "CC[C@@H](C(=O)[C@@H](C)[C@@H](O)[C@H](C)[C@@H]1O[C@@H]([C@@H](CC)C(=O)O)CC[C@@H]1C)[C@H]1O[C@]2(C=C[C@@H](NC(=O)Nc3ccc(F)cc3)[C@]3(CC[C@@](C)([C@H]4CC[C@](O)(CC)[C@H](C)O4)O3)O2)[C@H](C)C[C@@H]1C"
0.0117

----------
Listing of entries alongside the reported SI MV4-11.
- Test system: MV-4-11 (human biphenotypic leukaemia)
- protocol.details: In vitro cytotoxicity, MTT assay, MV-4-11
- Type: cell-based
// response body must contain only the number

These solved cases illustrate the format of a correct answer.
CC[C@@H](C(=O)[C@@H](C)[C@@H](O)[C@H](C)[C@@H]1O[C@@H]([C@@H](CC)C(=O)O)CC[C@@H]1C)[C@H]1O[C@]2(C=C[C@@H](NC(=O)NCCc3cccnc3)[C@]3(CC[C@@](C)([C@H]4CC[C@](O)(CC)[C@H](C)O4)O3)O2)[C@H](C)C[C@@H]1C : 25.0
CC[C@@H](C(=O)[C@@H](C)[C@@H](O)[C@H](C)[C@@H]1O[C@@H]([C@@H](CC)C(=O)O)CC[C@@H]1C)[C@H]1O[C@]2(C=C[C@@H](NC(=O)N3CCC3)[C@]3(CC[C@@](C)([C@H]4CC[C@](O)(CC)[C@H](C)O4)O3)O2)[C@H](C)C[C@@H]1C : 5.9
CC[C@@H](C(=O)[C@@H](C)[C@@H](O)[C@H](C)[C@@H]1O[C@@H]([C@@H](CC)C(=O)O)CC[C@@H]1C)[C@H]1O[C@]2(C=C[C@@H](NC(=O)C(=O)NCc3ccccn3)[C@]3(CC[C@@](C)([C@H]4CC[C@](O)(CC)[C@H](C)O4)O3)O2)[C@H](C)C[C@@H]1C : 9.2
C#CC(C)(C)OC(=O)N[C@@H]1C=C[C@]2(O[C@H]([C@@H](CC)C(=O)[C@@H](C)[C@@H](O)[C@H](C)[C@@H]3O[C@@H]([C@@H](CC)C(=O)O)CC[C@@H]3C)[C@@H](C)C[C@H]2C)O[C@@]12CC[C@@](C)([C@H]1CC[C@](O)(CC)[C@H](C)O1)O2 : 32.1
CC[C@@H](C(=O)[C@@H](C)[C@@H](O)[C@H](C)[C@@H]1O[C@@H]([C@@H](CC)C(=O)O)CC[C@@H]1C)[C@H]1O[C@]2(C=C[C@@H](NS(=O)(=O)c3cccs3)[C@]3(CC[C@@](C)([C@H]4CC[C@](O)(CC)[C@H](C)O4)O3)O2)[C@H](C)C[C@@H]1C : 8.3

# query: SI MV4-11 of entry "CC[C@@H](C(=O)[C@@H](C)[C@@H](O)[C@H](C)[C@@H]1O[C@@H]([C@@H](CC)C(=O)O)CC[C@@H]1C)[C@H]1O[C@]2(C=C[C@@H](NC(=O)N3CCN(C)CC3)[C@]3(CC[C@@](C)([C@H]4CC[C@](O)(CC)[C@H](C)O4)O3)O2)[C@H](C)C[C@@H]1C"
9.5

Would you kindly repeat that for "CC[C@@H](C(=O)[C@@H](C)[C@@H](O)[C@H](C)[C@@H]1O[C@@H]([C@@H](CC)C(=O)O)CC[C@@H]1C)[C@H]1O[C@]2(C=C[C@@H](NC(=O)OCCN(C)C)[C@]3(CC[C@@](C)([C@H]4CC[C@](O)(CC)[C@H](C)O4)O3)O2)[C@H](C)C[C@@H]1C" ?
8.2

Another: "CC[C@@H](C(=O)[C@@H](C)[C@@H](O)[C@H](C)[C@@H]1O[C@@H]([C@@H](CC)C(=O)O)CC[C@@H]1C)[C@H]1O[C@]2(C=C[C@@H](NC(=O)NCCCOC)[C@]3(CC[C@@](C)([C@H]4CC[C@](O)(CC)[C@H](C)O4)O3)O2)[C@H](C)C[C@@H]1C"
11.9
